- Target Entity: human GLP-1 receptor (human, UniProt P43220)
- Measurement Protocol: cell-based or functional assay
Starred links: 1 amine or outer side, 2 acyl side, 3 side chain; linkers in the order of their positions; H or OH if unused. Non-standard residues stand in square brackets, D forms with d. Groups on a side chain read outwards from the residue. Primed or numbered codes have the meaning given here. No end group written: not given here. *: point of attachment. C20 diacid = O=C(O)CCCCCCCCCCCCCCCCCCC(=O)*; C18 diacid = O=C(O)CCCCCCCCCCCCCCCCC(=O)*; γGlu = O=C(O)[C@H](CCC(=O)[*:2])N[*:1]; Palmitoyl = CCCCCCCCCCCCCCCC(=O)*; αMeF = C[C@](N)(Cc1ccccc1)C(=O)O; Myristoyl = CCCCCCCCCCCCCC(=O)*; PEG2′ = polyethylene glycol 2; αMeS = C[C@](N)(CO)C(=O)O; AEEA = NCCOCCOCC(=O)O; Aib = CC(C)(N)C(=O)O
Decision: cAMP production EC50 compared against 0.2 nM; not below it gives t, below it gives f.

Binder | Answer Label
H[αMeS]QGS[αMeF]TSDVSKILDSK([PEG2′-PEG2′-γGlu-Palmitoyl])AAQD[αMeF]VQ[Aib]IINT-NH2 [Peptide 134] | f
H[αMeS]QGS[αMeF]TSDVSKILDSK([PEG2′-PEG2′-γGlu-Myristoyl])AAQD[αMeF]VQ[Aib]IINT-NH2 [Peptide 135] | f
H[Aib]QGTFTSDVSK[αMeF]LETK([AEEA-AEEA-γGlu-C18 diacid])RARDFVQWLLE[Aib]G-OH [Peptide 445] | f
H[Aib]QGTFTSDVSK[αMeF]LDTK([AEEA-AEEA-γGlu-C20 diacid])RAQDFVRWLLR[Aib]K-OH [Peptide 494] | f
H[Aib]QGTFTSDVSK[αMeF]LDSK([AEEA-AEEA-γGlu-C18 diacid])RAQDFVQWLL[Aib]TE-OH (not fully specified) [Peptide 150] | f
H[Aib]QGTFTSDVSK[αMeF]LDTK([AEEA-AEEA-γGlu-γGlu-C20 diacid])RAQDFVAWLEAGG-OH [Peptide 413] | t
H[Aib]QGTFTSDVSK[αMeF]LDTKRARDFVQWLLE[Aib]G-OH (not fully specified (residue 17)) [Peptide 520] | t
H[Aib]QGTFTSDVSK[αMeF]LDSK([AEEA-AEEA-γGlu-C18 diacid])RARDFVRWLL[Aib]TE-OH (also: αMePhe at 23 (V)) [Peptide 166] | f
H[Aib]QGTFTSDVSK[αMeF]LDSK([γGlu-γGlu-AEEA-AEEA-γGlu-γGlu-C20 diacid])RAQDFVRWLLE[Aib]G-OH [Peptide 139] | t
H[Aib]QGTFTSDVSK[αMeF]LDTK([AEEA-AEEA-γGlu-C20 diacid])RARDFVAWLLE[Aib]G-NH2 [Peptide 507] | f
H[Aib]QGTFTSDVSK[αMeF]LDTK([AEEA-AEEA-γGlu-γGlu-C18 diacid])RAQDFVQWLLE[Aib]G-NH2 [Peptide 468] | f
H[Aib]QGTFTSDVSK[αMeF]LDKK([AEEA-AEEA-γGlu-C20 diacid])RAQDFVRWLLE[Aib]G-NH2 [Peptide 453] | f
H[Aib]QGTFTSDVSK[αMeF]LDKK([AEEA-AEEA-γGlu-C20 diacid])RAQDFVRWLLAE-NH2 [Peptide 460] | f
H[Aib]QGTFTSDVSK[αMeF]LDRK([AEEA-AEEA-γGlu-C20 diacid])RARDFVQWLL[Aib]E-NH2 [Peptide 471] | f
H[Aib]QGTFTSDVSK[αMeF]LDTK([AEEA-AEEA-γGlu-C20 diacid])RAQDFVRWLLE[Aib]K-OH [Peptide 503] | f
H[Aib]QGTFTSDVSK[αMeF]LETK([AEEA-AEEA-γGlu-C18 diacid])RARDFVQWLLE[Aib]G-OH (not fully specified) [Peptide 444] | t
H[Aib]QGTFTSDVSK[αMeF]LDTK([AEEA-AEEA-γGlu-C18 diacid])RAQDFVQWLL[Aib]E-OH [Peptide 483] | f
